# test.target: hSK2 (Homo sapiens)
# method.description: Automated patch clamp (QPatch 16), whole cell, stable HEK293 cell line expressing hSK2
# run.parameters: HEK stable line, 400 nM free intracellular calcium, mean ± SEM, n = 8
property.name: pIC50
Answers are plain numbers, as −log10 of the molar value.

Q: Tell me its pIC50 on hSK2 (Homo sapiens): `c1cc(-c2nc3ccccc3[nH]2)nc(-c2nc3ccccc3[nH]2)c1`
A: 6.40

====

# test.target: hSK1 (Homo sapiens, UniProt Q92952)
# method.description: Automated patch clamp (QPatch 16), whole cell, stable HEK293 cell line expressing hSK1
# run.parameters: HEK stable line, 400 nM free intracellular calcium, mean ± SEM, n = 9
property.name: pIC50
Give bare numbers, as −log10 of the molar value.

Q: Fill in pIC50 for record `c1cc(-c2nc3ccccc3[nH]2)nc(-c2nc3ccccc3[nH]2)c1`
A: 6.15

====

# test.target: hSK3 (Homo sapiens, UniProt Q9UGI6)
# method.description: Automated patch clamp (QPatch 16), whole cell, stable HEK293 cell line expressing hSK3
# run.parameters: HEK stable line, 400 nM free intracellular calcium, mean ± SEM, n = 9
property.name: pIC50
One number for each entry, as −log10 of the molar value.

Q: Tell me its pIC50 on hSK3 (Homo sapiens, UniProt Q9UGI6): `c1cc(-c2nc3ccccc3[nH]2)nc(-c2nc3ccccc3[nH]2)c1`
A: 6.40
